All values here come from the supplement of paper PMC10567573.

B1: SNX8 (parent)
chain: LHQETQLIHVYLPLTSHILRAFVN

# Variants of: B1
# Protocol Text: protein stability index of a GFP-peptide fusion (GPS, HEK-293T) (PSI 1-6); higher = more stable;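 further: lentivirally expressed fusions sorted by FACS into six bins by GFP to DsRed ratio, PSI derived from sequencing read proportions per bin multiplied by bin number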
# Measurement Setup: c terminus: a fixed tail appended
Readout Type: protein stability index
// return just the number, without any unit appended

Any idea what protein stability index was measured for `Q6S` ? 2.04

Likewise for `V23S` ? 2

Likewise for `Q6D` ? 2.01

Likewise for `L14M` ? 2.41

Likewise for `E4G` ? 2.64

Likewise for `L12W` ? 3.2

Likewise for `L14F` ? 1.31

Likewise for `L12M` ? 2.71

Likewise for `I8Q` ? 1.68

Likewise for `L19E` ? 2.23

Likewise for `V10Y` ? 2.24

Likewise for `H2W` ? 3.21

Likewise for `T15I` ? 2.85

Likewise for `V10K` ? 1.23

Likewise for `V23H` ? 2.58

Likewise for `H17T` ? 1.85

Likewise for `H9L` ? 3.18

Likewise for `E4F` ? 2.34

Likewise for `L19Q` ? 5.08

Likewise for `L12R` ? 2.48

Likewise for `I8S` ? 2.03

Likewise for `I18G` ? 1.71
